Hi there, I'd appreciate the recorded eff. (efficiency %), cytotoxic effect on A172 cells for every entry that follows.
Target or system: TRAILR2 receptor on the surface of human tumor cells (human, UniProt O14763 56-440)
Protocol description: cell-based or functional assay
Enter your answer as a number in %; do not include the unit.

Please report the measured eff. (efficiency %), cytotoxic effect on A172 cells for Zapadcine-3a (antibody, V domains shown, MMAE coupled through linker PY-VC-PAB by thiol bridge coupling, cleavable; positions not given) VH: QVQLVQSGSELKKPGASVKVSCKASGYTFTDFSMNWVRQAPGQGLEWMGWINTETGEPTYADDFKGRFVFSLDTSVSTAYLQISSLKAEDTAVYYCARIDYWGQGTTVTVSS VL: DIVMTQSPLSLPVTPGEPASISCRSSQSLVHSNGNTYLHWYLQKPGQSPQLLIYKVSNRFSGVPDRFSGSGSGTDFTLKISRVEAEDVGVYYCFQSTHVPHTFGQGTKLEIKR
98.2

Please report the measured eff. (efficiency %), cytotoxic effect on A172 cells for Zapadcine-3c (antibody, V domains shown, MMAE coupled through linker MC-VC-PAB by thiol conventional coupling, cleavable; positions not given) VH: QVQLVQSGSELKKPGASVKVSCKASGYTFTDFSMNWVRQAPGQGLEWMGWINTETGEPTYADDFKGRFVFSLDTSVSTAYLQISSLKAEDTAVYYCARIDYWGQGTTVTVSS VL: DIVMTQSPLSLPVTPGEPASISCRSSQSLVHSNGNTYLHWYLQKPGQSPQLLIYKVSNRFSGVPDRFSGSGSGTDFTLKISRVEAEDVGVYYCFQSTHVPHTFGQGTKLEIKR
93.2

Please report the measured eff. (efficiency %), cytotoxic effect on A172 cells for Zapadcine-3b (antibody, V domains shown, MMAE coupled through linker PY-MAA by thiol bridge coupling, non-cleavable; positions not given) VH: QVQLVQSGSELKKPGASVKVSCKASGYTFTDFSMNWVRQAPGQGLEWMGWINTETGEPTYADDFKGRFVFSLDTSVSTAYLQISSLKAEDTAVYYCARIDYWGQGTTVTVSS VL: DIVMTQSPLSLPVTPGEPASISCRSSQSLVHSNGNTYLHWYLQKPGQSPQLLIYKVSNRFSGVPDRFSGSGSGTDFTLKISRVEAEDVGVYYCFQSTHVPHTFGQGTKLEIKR
90.8

Please report the measured eff. (efficiency %), cytotoxic effect on A172 cells for Zapadcine-3d (antibody, V domains shown, MMAE coupled through linker MC by thiol conventional coupling, non-cleavable; positions not given) VH: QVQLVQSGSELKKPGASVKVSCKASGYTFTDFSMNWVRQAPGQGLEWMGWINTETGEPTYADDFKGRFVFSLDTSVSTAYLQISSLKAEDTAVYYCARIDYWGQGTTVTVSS VL: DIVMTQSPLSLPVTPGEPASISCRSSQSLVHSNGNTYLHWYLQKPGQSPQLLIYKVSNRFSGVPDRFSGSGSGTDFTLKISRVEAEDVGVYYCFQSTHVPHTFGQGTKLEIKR
92.5
